Measured GI50, listed per entry.
- System: SNB-19
- protocol_summary: NCI tumour cell line growth inhibition, 48 h
The source made the active and inactive calls. Rule as the data show it: active = GI50 up to about 1.1 µM and inactive = higher.

Here's what some known entries look like.
>>> experimental_value("Cc1ccc(N2C(=O)N(c3ccc(C)cc3)C3(SC=NN3C)C2=O)cc1 (stereo not drawn)")
"> 100 µM (inactive)"
>>> experimental_value("CC(=O)OC1COC(N2C(=O)/C(=N\\Nc3ccc([N+](=O)[O-])cc3)c3cc(Br)c([N+](=O)[O-])cc32)C(OC(C)=O)C1OC(C)=O (stereo not drawn)")
"> 100 µM (inactive)"

Consider the record given below.
Give the measured GI50 of CC(C)/C(Cl)=N\OC(NC(=O)P(=O)(c1ccccc1)c1ccccc1)(C(F)(F)F)C(F)(F)F . 17.9 µM (inactive)
